The reported numbers originate from patent US11236129B2.

systemUnderTest: IL-17RA/IL17RC dimerization induced by IL-17A (Homo sapiens)
Sequence (Q16552 24-155): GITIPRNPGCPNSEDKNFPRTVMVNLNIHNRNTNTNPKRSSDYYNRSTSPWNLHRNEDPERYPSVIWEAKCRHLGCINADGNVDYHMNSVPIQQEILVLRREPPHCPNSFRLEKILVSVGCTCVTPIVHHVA
protocolDetails: IL-17RA/IL17RC dimerization assay in response to IL-17A (PathHunter Cytokine Receptor Assay)
Format: cell-based
details: IL-17A at EC80; read-out: IC50 in IL-17RA/IL7RC dimerization assay
Residues, ends and D or L forms follow the SMILES beside them.
metric: IC50

Q: Fill in the blank: the reported IC50 of CC(=O)N[C@H](C(=O)N[C@@H](Cc1c[nH]cn1)C(=O)N[C@H](C(=O)N[C@H](C(=O)N[C@H](C(=O)N1CCC[C@H]1C(=O)N[C@@H](CCC(N)=O)C(=O)N[C@@H](CCC(=O)O)C(=O)N[C@@H](CC(C)C)C(=O)N[C@@H](Cc1ccc(O)cc1)C(=O)N[C@@H](CCC(=O)O)C(=O)N[C@@H](Cc1c[nH]c2ccccc12)C(=O)N[C@H](C(=O)N[C@@H](CCCNC(=N)N)C(=O)N[C@@H](CCCNC(=N)N)C(N)=O)C(C)C)C(C)C)[C@@H](C)O)C(C)C)C(C)C [SEQ ID NO: 226] (Ac-VHVTVPQELYEWVRR-NH2) is ____.
A: < 10 µM

====

protocolDetails: Isoelectric point, log D and log P (SiriusT3)
Type: physicochemical
details: logP
Residues, ends and D or L forms follow the SMILES beside them.
Assign logP to each entry below.
Numbers only.

Solved cases (4 shown):
CC[C@H](C)[C@H](NC(C)=O)C(=O)N[C@@H](Cc1c[nH]cn1)C(=O)N[C@H](C(=O)N[C@H](C(=O)N[C@H](C(=O)N1CCC[C@H]1C(=O)N[C@@H](C)C(=O)N[C@@H](CC(=O)O)C(=O)N[C@@H](CC(C)C)C(=O)N[C@@H](Cc1c[nH]c2ccccc12)C(=O)N[C@@H](CC(=O)O)C(=O)N[C@@H](Cc1c[nH]c2ccccc12)C(=O)N[C@H](C(=O)N[C@@H](CC(N)=O)C(=O)N[C@@H](CCCCN)C(N)=O)[C@@H](C)CC)[C@@H](C)CC)[C@@H](C)O)C(C)C [SEQ ID NO: 1, reference compound] (Ac-IHVTIPADLWDWINK-NH2) ... -5.98
CC[C@H](C)[C@H](NC(C)=O)C(=O)N[C@@H](Cc1c[nH]cn1)C(=O)N[C@H](C(=O)N[C@H](C(=O)N[C@H](C(=O)N1CCC[C@H]1C(=O)N[C@@H](C)C(=O)N[C@@H](CC(=O)O)C(=O)N[C@@H](CC(C)C)C(=O)N[C@@H](Cc1c[nH]c2ccccc12)C(=O)N[C@@H](CC(=O)O)C(=O)N[C@@H](Cc1c[nH]c2ccccc12)C(=O)N[C@H](C(=O)N[C@@H](CC(N)=O)C(=O)N[C@@H](CCC(=O)O)C(N)=O)[C@@H](C)CC)[C@@H](C)CC)[C@@H](C)O)C(C)C [SEQ ID NO: 12, IHVTIPADLWDWINE] (Ac-IHVTIPADLWDWINE-NH2) ... 1.31
CC[C@H](C)[C@H](NC(C)=O)C(=O)N[C@@H](Cc1c[nH]cn1)C(=O)N[C@H](C(=O)N[C@H](C(=O)N[C@H](C(=O)N1CCC[C@H]1C(=O)N[C@@H](C)C(=O)N[C@@H](CC(=O)O)C(=O)N[C@@H](CC(C)C)C(=O)N[C@@H](Cc1c[nH]c2ccccc12)C(=O)N[C@@H](CC(=O)O)C(=O)N[C@@H](Cc1c[nH]c2ccccc12)C(=O)N[C@H](C(=O)N[C@@H](CC(N)=O)C(=O)N[C@@H](CCCCN)C(N)=O)C(C)C)[C@@H](C)CC)[C@@H](C)O)C(C)C [SEQ ID NO: 8] (Ac-IHVTIPADLWDWVNK-NH2) ... -5.12
CC[C@H](C)[C@H](NC(C)=O)C(=O)N[C@@H](Cc1c[nH]cn1)C(=O)N[C@H](C(=O)N[C@H](C(=O)N[C@H](C(=O)N1CCC[C@H]1C(=O)N[C@@H](C)C(=O)N[C@@H](CC(=O)O)C(=O)N[C@@H](CC(C)C)C(=O)N[C@@H](Cc1c[nH]c2ccccc12)C(=O)N[C@@H](CC(=O)O)C(=O)N[C@@H](Cc1c[nH]c2ccccc12)C(=O)N[C@H](C(=O)N[C@@H](CC(N)=O)C(=O)N[C@@H](CCCNC(=N)N)C(N)=O)[C@@H](C)CC)[C@@H](C)CC)[C@@H](C)O)C(C)C [SEQ ID NO: 10] (Ac-IHVTIPADLWDWINR-NH2) ... 0.09

Could you now look at the following compound, please?
Q: Fill in the blank: the reported logP of CC[C@H](C)[C@H](NC(C)=O)C(=O)N[C@@H](Cc1c[nH]cn1)C(=O)N[C@H](C(=O)N[C@H](C(=O)N[C@H](C(=O)N1CCC[C@H]1C(=O)N[C@@H](C)C(=O)N[C@@H](CC(=O)O)C(=O)N[C@@H](CC(C)C)C(=O)N[C@@H](Cc1c[nH]c2ccccc12)C(=O)N[C@@H](CC(=O)O)C(=O)N[C@@H](Cc1c[nH]c2ccccc12)C(=O)N[C@H](C(=O)N[C@@H](CCC(=O)O)C(=O)N[C@@H](CCC(=O)O)C(N)=O)C(C)C)[C@@H](C)CC)[C@@H](C)O)C(C)C [SEQ ID NO: 15] (Ac-IHVTIPADLWDWVEE-NH2) is ____.
A: 1.66

====

protocolDetails: Isoelectric point, log D and log P (SiriusT3)
Format: physicochemical
details: octanol/ISA water; read-out: logP
Residues, ends and D or L forms follow the SMILES beside them.
Assign logP to each entry below.

CC(=O)N[C@@H](CC(=O)O)C(=O)N[C@@H](CC(C)C)C(=O)N[C@@H](CO)C(=O)N[C@@H](C)C(=O)N[C@H](C(=O)N[C@H]1CSSC[C@@H](C(=O)N[C@@H](Cc2c[nH]cn2)C(N)=O)NC(=O)[C@H](CCC(=O)O)NC(=O)[C@@H]2CCCN2C(=O)[C@H](CC(=O)O)NC(=O)[C@H](Cc2c[nH]c3ccccc23)NC(=O)[C@@H]2CCCN2C(=O)[C@H](Cc2ccccc2)NC(=O)[C@H](C)NC(=O)[C@H](Cc2c[nH]c3ccccc23)NC1=O)C(C)C [SEQ ID NO: 41] ... 1.24

Could you now look at the following compound, please?
Q: Fill in the blank: the reported logP of CC[C@H](C)[C@H](NC(=O)[C@@H](NC(=O)[C@@H](NC(=O)[C@H](Cc1c[nH]cn1)NC(=O)[C@@H](NC(C)=O)C(C)C)C(C)C)[C@@H](C)O)C(=O)N1CCC[C@H]1C(=O)N[C@@H](C)C(=O)N[C@@H](CCC(=O)O)C(=O)N[C@@H](CC(C)C)C(=O)N[C@@H](Cc1c[nH]c2ccccc12)C(=O)N[C@@H](CCC(=O)O)C(=O)N[C@@H](Cc1c[nH]c2ccccc12)C(=O)N[C@H](C(=O)N[C@@H](CCCNC(=N)N)C(=O)N[C@@H](CCCNC(=N)N)C(N)=O)C(C)C [SEQ ID NO: 111] (Ac-VHVTIPAELWEWVRR-NH2) is ____.
A: -0.38

====

protocolDetails: Permeability test across stratified human corneal epithelial cells
Format: in vitro ADME
details: Permeability (Papp)
Residues, ends and D or L forms follow the SMILES beside them.
metric: Papp (×10⁻⁶ cm/s)
Numbers only, in ×10⁻⁶ cm/s.

CC[C@H](C)[C@H](NC(=O)[C@H](Cc1c[nH]c2ccccc12)NC(=O)[C@H](CC(=O)O)NC(=O)[C@H](Cc1c[nH]c2ccccc12)NC(=O)[C@H](CC(C)C)NC(=O)[C@H](CC(=O)O)NC(=O)[C@H](C)NC(=O)[C@@H]1CCCN1C(=O)[C@@H](NC(=O)[C@@H](NC(=O)[C@@H](NC(=O)[C@H](Cc1c[nH]cn1)NC(=O)[C@@H](NC(C)=O)C(C)C)C(C)C)[C@@H](C)O)[C@@H](C)CC)C(=O)N[C@@H](CC(N)=O)C(=O)N[C@@H](CCCCN)C(N)=O [SEQ ID NO: 2] (Ac-VHVTIPADLWDWINK-NH2) ... 28.9
CC[C@H](C)[C@H](NC(C)=O)C(=O)N[C@@H](Cc1c[nH]cn1)C(=O)N[C@H](C(=O)N[C@H](C(=O)N[C@H](C(=O)N1CCC[C@H]1C(=O)N[C@@H](C)C(=O)N[C@@H](CC(=O)O)C(=O)N[C@@H](CC(C)C)C(=O)N[C@@H](Cc1c[nH]c2ccccc12)C(=O)N[C@@H](CC(=O)O)C(=O)N[C@@H](Cc1c[nH]c2ccccc12)C(=O)N[C@H](C(=O)N[C@@H](CC(N)=O)C(=O)N[C@@H](CCCCN)C(N)=O)[C@@H](C)CC)[C@@H](C)CC)[C@@H](C)O)C(C)C [SEQ ID NO: 1, reference compound] (Ac-IHVTIPADLWDWINK-NH2) ... 19.3

Could you now look at the following compound, please?
Q: Fill in the blank: the reported Papp of CC[C@H](C)[C@H](NC(C)=O)C(=O)N[C@@H](Cc1c[nH]cn1)C(=O)N[C@H](C(=O)N[C@H](C(=O)N[C@H](C(=O)N1CCC[C@H]1C(=O)N[C@@H](C)C(=O)N[C@@H](CC(=O)O)C(=O)N[C@@H](CC(C)C)C(=O)N[C@@H](Cc1c[nH]c2ccccc12)C(=O)N[C@@H](CC(=O)O)C(=O)N[C@@H](Cc1c[nH]c2ccccc12)C(=O)N[C@H](C(=O)N[C@@H](CCC(=O)O)C(=O)N[C@@H](CCCCN)C(N)=O)[C@@H](C)CC)[C@@H](C)CC)[C@@H](C)O)C(C)C [SEQ ID NO: 11] (Ac-IHVTIPADLWDWIEK-NH2) is ____.
A: 28
